Value source: ChEMBL document CHEMBL1134333

Molecular target: Glutamate receptor ionotropic, AMPA (Rattus norvegicus, UniProt P19490+P19491+P19492+P19493)
Experiment: Inhibition of binding to AMPA receptor from rat cerebral cortex
Each record here notes measured pIC50.
Friendly reminder that pIC50 comes from taking -log10 of the concentration in mol/L.

Exercise: If you can, please state the reported pIC50 value of CC(CNS(=O)(=O)C(C)C)c1ccc(NC(=O)c2ccccc2)cc1 (configuration not stated) .
Solution: 6.77

Exercise: Any idea what pIC50 was measured for NS(=O)(=O)c1cc2c(cc1Cl)NC(C1CC3C=CC1C3)NS2(=O)=O (configuration not stated) [CYCLOTHIAZIDE] ?
Solution: 5.21
